Test system: MDA-MB-435 melanoma
ASSAY TEXT: NCI-60 one-dose screen, 48 h (100 = growth as untreated, 0 = no growth, -100 = all killed)
EXPERIMENTAL PARAMETERS: 10 µM unless noted
This is part of a sample that, as a whole, favours compounds with a hit. Of some 83,000 tested, about 20% had one in any assay.
MEASURED ATTRIBUTE: growth (%)
Give bare numbers, in %.

COMPOUND: Cc1cc2ccccn2c1C(=O)c1ccc(C(=O)c2ccccc2)cc1
growth (%): 91.3

COMPOUND: CC(=O)c1ccc(NS(=O)(=O)c2ccc([N+](=O)[O-])cc2)cc1
growth (%): 122

COMPOUND: Nc1nc(SCc2cccnc2)c2ncn(C3OC(CO)C(O)C3O)c2n1 (centres undefined)
growth (%): 104

COMPOUND: COc1cc(C(=O)/C=C/c2cccc(Nc3ccnc4cc(Cl)ccc34)c2)cc(OC)c1OC
growth (%): -16.1

COMPOUND: CC(C)Sc1nc(Cl)c(C#N)c(-c2ccc(F)cc2)n1
growth (%): 101

Could you tell me growth for each of these compounds? They are listed below.
1. O=C(NN1C(=O)c2cc(C(=O)O)c(C(=O)O)cc2C1=O)c1ccncc1
2. CC(=O)N1N=C(c2ccc(Cl)cc2)CC1c1c(C)nn(-c2ccccc2)c1N(C)Cc1ccccc1 (centres undefined)
3. O=C(Nc1nc2c(C(F)(F)F)cccc2s1)c1cc(Cl)ccc1O

Solution:
114
87
5.71

###

Answer each item with its documented growth.
Tested on: NCI/ADR-RES ovarian
ASSAY TEXT: NCI-60 one-dose screen, 48 h (100 = growth as untreated, 0 = no growth, -100 = all killed)
EXPERIMENTAL PARAMETERS: 10 µM unless noted
Compounds without any hit were thinned out: in the full panel of roughly 83,000, 20% have a hit.
Give bare numbers, in %.

Some compounds with known growth results, for comparison:
COMPOUND: O=C(N/N=C/c1cccc(O)c1O)c1ccccc1
MEASURED ATTRIBUTE: growth
VALUE OBSERVED: 11

COMPOUND: COP(=O)(OC)C(c1ccc(O)cc1)(c1ccc(O)cc1)c1ccc(O)cc1
MEASURED ATTRIBUTE: growth
VALUE OBSERVED: 92.3

COMPOUND: COc1cccc(CCN2C(=O)CCC3=C2CCC3=O)c1
MEASURED ATTRIBUTE: growth
VALUE OBSERVED: 104

COMPOUND: COc1ccc2c(c1)CC/C(=C\c1ccc(OCC(=O)Nc3nc4ccccc4s3)cc1)C2=O
MEASURED ATTRIBUTE: growth
VALUE OBSERVED: 102

COMPOUND: Cc1[nH]c(=O)[nH]c(=O)c1CCSSCCc1c(C)[nH]c(=O)[nH]c1=O
MEASURED ATTRIBUTE: growth
VALUE OBSERVED: 104

Could you tell me growth for each of these compounds? They are listed below.
1. O=C(Nc1ccccc1)P(=O)(O)c1ccccc1
2. CCN(CC)CCNCC(=O)Oc1ccc(/C=C/C(=O)CC(=O)/C=C/c2ccc(OC(=O)CNCCN(CC)CC)c(OC)c2)cc1OC
3. CC(=O)c1ccccc1NC(=O)C(C)(c1ccccc1)c1ccccc1

Solution:
1: 99.4; 2: 71.6; 3: 63.8

Could you tell me growth for each of these compounds? They are listed below.
1. O=C1NC(=S)S/C1=C\c1cc(Br)ccc1O
2. O=[N+]([O-])c1cc([N+](=O)[O-])c(N2CCCC2)cc1NN=C(c1ccc(O)cc1)c1ccc(O)cc1
3. Cc1cc2ccccn2c1C(=O)c1ccc(C(=O)c2ccccc2)cc1
4. O=C(O)C1C(c2ccccc2)c2ccccc2C(O)C1CO (centres undefined)
5. Nc1nc(NC2CC2)c2ncn(C3C=CC(CO)C3)c2n1 (centres undefined)
6. COc1cc(/C=C/C(=O)c2c(C)n([O-])c3ccccc3[n+]2=O)cc(OC)c1OC

Solution:
102
33.6
72
109
104
43.4
